Assay: Biochemical counterscreen for C difficile toxins, absence of UDPG, inhibitor dose response (AID 720650)
Conditions: series mostly up to 19.5 µM
Calls of active or inactive are those of the source. The rule behind the calls is not given here.
Classes used: active, inactive

>>> label_value("CCOc1cc(/C=N\\n2nnnc2N)ccc1O")
"inactive"
>>> label_value("CC1C(c2ccc3c(c2)OCO3)c2cc3c(cc2OC1N1CCOCC1)OCO3 (configuration not stated)")
"inactive"
>>> label_value("CC1CCN(CCCn2c(=S)[nH]c3c(sc4ccccc43)c2=O)CC1")
"inactive"
>>> label_value("Cc1cc(C(C)(C)C)cc(CN2CCN(S(=O)(=O)c3cccs3)CC2)c1O")
"inactive"
>>> label_value("Cc1ccc(S(=O)(=O)N2CC(CBr)=CCC2c2ccccc2)cc1 (configuration not stated)")
"active"
>>> label_value("CCC(=O)N1CC[C@@H]2[C@H]1c1cc(-c3ccc(OC)cc3)ccc1N(C)[C@H]2CO")
"inactive"
>>> label_value("CC(C)(C)C(=O)C1=C(O)C(=O)N(c2ccccc2)C1c1ccccc1 (configuration not stated)")
"inactive"
>>> label_value("COc1cccc(/C=C/c2onc(C)c2S(=O)(=O)N2CCC(C(=O)NC3CCCCCC3)CC2)c1")
"inactive"
>>> label_value("N/C(=N\\N=C\\c1ccc(O)cc1)c1nonc1N")
"active"
>>> label_value("O=C1OCC/C1=C\\c1ccc(O)cc1")
"active"
>>> label_value("CO[C@@H]1CN(C)C(=O)c2cc(NC(=O)NC(C)C)ccc2OC[C@@H](C)N(S(C)(=O)=O)C[C@H]1C")
"inactive"
>>> label_value("COc1cc2[nH]c(=S)nc(NCCC(C)C)c2cc1OC")
"inactive"
>>> label_value("COc1ccc2nc(NNC(=O)C3COc4ccccc4O3)sc2c1 (configuration not stated)")
"active"
>>> label_value("C[C@H]1CN([C@@H](C)CO)S(=O)(=O)c2ccc(-c3ccncc3)cc2O[C@@H]1CN(C)Cc1ccc(Oc2ccccc2)cc1")
"inactive"
>>> label_value("CC(=O)N1CCN(c2ccc(S(C)(=O)=O)cc2[N+](=O)[O-])CC1")
"inactive"
>>> label_value("Nc1cc(=O)[nH]c(SCC(=O)Nc2ccccc2Sc2ccc(Cl)cc2)n1")
"inactive"
>>> label_value("CCc1ccc(Nc2n[n+](-c3ccccc3)c(-c3ccc(OC)c(Br)c3)s2)cc1")
"inactive"
>>> label_value("CCN(CC)CCNC(=O)C1CCN(S(=O)(=O)c2c(C)noc2/C=C/c2ccccc2F)CC1")
"inactive"
>>> label_value("CN1C(=O)C(c2nnc(Nc3cccc4ccccc34)s2)C2CC1(C)Oc1ccccc12 (configuration not stated)")
"inactive"
>>> label_value("CCOc1ccccc1NC(=O)CCNS(=O)(=O)c1cccc2nonc12")
"inactive"
>>> label_value("C=CCNc1n[nH]c(=S)s1")
"inactive"
>>> label_value("CCNC(=O)C[C@H]1CC[C@@H]2[C@@H](COc3ccc(NC(=O)c4cccc(OC)c4)cc3C(=O)N2C)O1")
"inactive"
>>> label_value("CS(=O)(=O)N(CC(=O)Nc1ccc(S(=O)(=O)N2CCOCC2)cc1)c1ccccc1Br")
"inactive"
>>> label_value("O=S(=O)(c1ccccc1)N1CCN(Cc2nnc(-c3ccccc3)o2)CC1")
"inactive"
>>> label_value("O=C(C[C@@H]1C[C@H]2c3cc(NC(=O)Nc4ccccc4)ccc3O[C@H]2[C@H](CO)O1)NCc1ccccc1")
"inactive"
>>> label_value("O=C(NCc1ccccc1)C1Cc2c(-c3cccc(F)c3)ccnc2O1 (configuration not stated)")
"inactive"
>>> label_value("COc1cc(C=NNC(=O)c2ccccc2-n2cccc2)ccc1O")
"inactive"
>>> label_value("O=C(NNc1nc2c(F)cccc2s1)C1COc2ccccc2O1 (configuration not stated)")
"active"
>>> label_value("CN(C(=O)COC(=O)CNC(=O)c1ccccc1Cl)c1ccccc1")
"inactive"
>>> label_value("CC(/C=N/n1c(-c2ccncc2)n[nH]c1=S)=C\\c1ccco1")
"inactive"
>>> label_value("CC(=O)Nc1ccc(S(=O)(=O)N2CCCC(C(=O)O)C2)cc1 (configuration not stated)")
"inactive"
>>> label_value("COc1cc2[nH]c(=S)n(Cc3cccs3)c(=O)c2cc1OC")
"inactive"
>>> label_value("C/C(=N\\NC(=O)c1ccccc1O)c1cccc(NC(=O)c2ccccc2)c1")
"inactive"
>>> label_value("O=S(=O)(NC1CCCCCCC1)c1ccc(F)cc1")
"inactive"
>>> label_value("CCOc1ccccc1/C=C/c1onc(C)c1S(=O)(=O)N1CCC(C(=O)NC(C)(C)C)CC1")
"inactive"
>>> label_value("CC(C)Cc1cc(C(=O)N2CCCC(CO)(Cc3ccc(F)cc3)C2)no1 (configuration not stated)")
"inactive"
>>> label_value("COCC#Cc1ccc2c(c1)O[C@H](CN(C)C(=O)CC1CC1)[C@@H](C)CN([C@H](C)CO)S2(=O)=O")
"inactive"
>>> label_value("Cc1ccccc1S(=O)(=O)N1CCCc2nc(C)c(C)cc21")
"inactive"
>>> label_value("Cc1ccc(C(=O)Nc2ccc(N3CCCCC3)cc2)cc1")
"inactive"
>>> label_value("CCOC(=O)/C=c1/s/c(=C/c2ccc3cc(OC)ccc3c2)c(=O)n1CC(=O)NCC1CCCO1 (configuration not stated)")
"inactive"
>>> label_value("CC1C(=O)NN=C1c1ccc([N+](=O)[O-])cc1 (configuration not stated)")
"inactive"
>>> label_value("Nc1cc(N)cc(C(=O)OCC(=O)Nc2cc(S(=O)(=O)N3CCCCC3)ccc2Cl)c1")
"inactive"
